- system: Receptor-type tyrosine-protein kinase FLT3 (Homo sapiens, UniProt P36888)
- Sequence (P36888 whole entry): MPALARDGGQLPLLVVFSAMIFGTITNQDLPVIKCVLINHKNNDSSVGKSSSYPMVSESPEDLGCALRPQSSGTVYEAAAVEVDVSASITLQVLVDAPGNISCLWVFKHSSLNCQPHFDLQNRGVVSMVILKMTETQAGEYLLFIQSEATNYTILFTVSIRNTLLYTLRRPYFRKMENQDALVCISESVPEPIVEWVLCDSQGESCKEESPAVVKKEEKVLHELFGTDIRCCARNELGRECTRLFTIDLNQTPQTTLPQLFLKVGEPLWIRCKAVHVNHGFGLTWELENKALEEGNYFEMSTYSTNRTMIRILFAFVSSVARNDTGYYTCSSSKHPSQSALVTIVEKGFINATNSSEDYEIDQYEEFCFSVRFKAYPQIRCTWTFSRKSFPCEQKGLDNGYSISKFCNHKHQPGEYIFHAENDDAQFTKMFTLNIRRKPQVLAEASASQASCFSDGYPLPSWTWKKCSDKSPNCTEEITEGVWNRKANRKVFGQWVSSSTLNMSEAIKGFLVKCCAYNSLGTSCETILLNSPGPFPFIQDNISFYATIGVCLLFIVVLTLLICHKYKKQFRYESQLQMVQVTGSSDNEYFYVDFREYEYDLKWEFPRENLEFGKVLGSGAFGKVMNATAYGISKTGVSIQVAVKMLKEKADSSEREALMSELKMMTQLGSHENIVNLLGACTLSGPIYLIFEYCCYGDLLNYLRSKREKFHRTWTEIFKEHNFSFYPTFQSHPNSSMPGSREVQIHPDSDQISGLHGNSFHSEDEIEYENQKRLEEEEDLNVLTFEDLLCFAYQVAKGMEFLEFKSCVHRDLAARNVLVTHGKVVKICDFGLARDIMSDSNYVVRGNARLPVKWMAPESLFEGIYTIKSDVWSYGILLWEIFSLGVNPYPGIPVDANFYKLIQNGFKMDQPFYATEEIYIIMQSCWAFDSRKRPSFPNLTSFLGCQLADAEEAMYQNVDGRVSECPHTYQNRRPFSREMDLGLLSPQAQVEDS
readoutKind: IC50
Units required after the number.

Entry "COc1cc2c(Oc3ccc(NC(=O)c4nn(-c5ccccc5C(F)(F)F)c(=O)cc4C)cc3F)ccnc2cc1OCCCN1CCOCC1" ; IC50 = 9.28 nM
